# target: T1, human IL-36α(R12), truncated (human, UniProt Q9UHA7 6-158)
# T1 construct: Untagged after removal of the His-SUMO tag; also called hIL-36alpha
# T1 chain: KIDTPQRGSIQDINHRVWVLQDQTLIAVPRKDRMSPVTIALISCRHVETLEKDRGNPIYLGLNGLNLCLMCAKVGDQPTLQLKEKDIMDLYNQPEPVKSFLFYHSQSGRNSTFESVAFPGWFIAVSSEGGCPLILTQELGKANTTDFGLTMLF
# protocol-summary: SPR, Biacore T200, antibody on chip, IL-36 as analyte, 1:1 Langmuir fit
Field: kon. Provide a value for each of the binders that follow.
Field format: number, assumed M⁻¹ s⁻¹, no unit text.

Summary for this binder, 144L124B (antibody, V domains shown, Mouse monoclonal from hybridoma; mouse IgG heavy and lambda light chain; Same VH and VL as 144L180A) VH: EVQLQQSGAELVKPGASVKLSCTASGFNIKDTYIYWVKQRPEQGLEWIGRIDPANGYTRYDPKFQGKATMTADTSSNTAYLQLSSLTSEDTAVYYCARYEYYDSSFYFDYWGQGTTLTVSS VL: QAVVTQESALTTSPGETVTLTCRSSTGAVTTSNYANWVQEKPDHLFTGLIGGTNNRAPGVPARFSGSLIGDKAALTITGAQTEDEAIYFCALWYSNHLVFGGGTKLTVL : kon is 1.17e+07

Summary for this binder, 144L249B (antibody, V domains shown, Mouse monoclonal from hybridoma; mouse IgG heavy and lambda light chain; also called mouse antibody 144L249B) VH: EVQLQQSGAELVKPGASVKLSCTASGFNIKDTYIYWVKQRPEQGLEWIGRIDPAIGTTRYDPKFQGKATLTADTSSNTAFLQLSSLTSEDTAVYYCARYDYSGSSFYFDYWGRGTTLTVSS VL: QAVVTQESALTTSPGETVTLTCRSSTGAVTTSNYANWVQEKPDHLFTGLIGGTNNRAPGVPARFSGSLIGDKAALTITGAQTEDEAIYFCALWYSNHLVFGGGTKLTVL : kon is 539000

Summary for this binder, m/h 144D666C (antibody, human IgG1, lambda, V domains shown, Mouse VH/VL joined to human IgG1 constant and human Ig lambda (IGLC2) constant; also called chimeric mouse/human 144D666C) VH: EVQLQQSGAELVKPGASVKLTCTASGFNIKDTYIYWVKQRPAQGLEWIGRIDPANAYTKFDPKFQGKATLTADTSSNTAYLQLSSLTSEDTAVYYCTRFHWYGSSFFFDYWGQGTTLTVSS VL: QAVVTQESALTTSPGETVTLTCRSSTGAVTTSNYANWVQEKPDHLFTGLIGGTDNRPPGVPARFSGSLIGDKAALTITGAQTEDEAIYFCALWYSNLWVFGGGTKLTVLG : kon is 87300
